- System: 889142-216-R-J1-PDC complex spheroid viability;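 also: spheroids exposed to compounds for seven days; 100% = DMSO vehicle control viability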
- TEST SUMMARY: Anticancer human tumor 889142-216-R-J1-PDC patient-derived bladder carcinoma cell line growth inhibition [POLQ]
- CONDITION INFO: second compound 1 µM; first compound 0.1 µM; stronger effect = lower value
Entries get a class label from measured viability, T/C. See ranges: b0 = under 80%, b1 = from 80% up to 90%, b2 = 90% and over

- MOLECULE: "CCc1c2c(nc3ccc(O)cc13)-c1cc3c(c(=O)n1C2)COC(=O)[C@]3(O)CC + Nc1ccc(C#CCN(C(=O)Cc2ncc(C(F)(F)F)cc2C(F)(F)F)c2ccc(F)cc2)nn1"
  STUDY TARGET: "889142-216-R-J1-PDC complex spheroid viability"
  LABEL VALUE: "b0"
- MOLECULE: "CC(C)n1c(=O)n(C)c2cnc3cc(F)c(-c4ccc(OCCCN5CCCCC5)nc4)cc3c21 + COC1C(OC(N)=O)C(O)C(Oc2ccc3c(O)c(NC(=O)c4ccc(O)c(CC=C(C)C)c4)c(=O)oc3c2C)OC1(C)C"
  STUDY TARGET: "889142-216-R-J1-PDC complex spheroid viability"
  LABEL VALUE: "b1"
- MOLECULE: "Cn1ncnc1[C@H]1c2n[nH]c(=O)c3cc(F)cc(c23)N[C@@H]1c1ccc(F)cc1 + Nc1ccc(C#CCN(C(=O)Cc2ncc(C(F)(F)F)cc2C(F)(F)F)c2ccc(F)cc2)nn1"
  STUDY TARGET: "889142-216-R-J1-PDC complex spheroid viability"
  LABEL VALUE: "b0"
- MOLECULE: "COc1cccc(OCCCN)c1-c1cc(Nc2cnc(C#N)cn2)n[nH]1 + Cc1cccc(N(C)C(=O)C2C(O)CCN2c2nc(C)cc(C(F)(F)F)c2C#N)c1"
  STUDY TARGET: "889142-216-R-J1-PDC complex spheroid viability"
  LABEL VALUE: "b0"
- MOLECULE: "C=CC(=O)N1CCN(c2nc(=O)n(-c3c(C)ccnc3C(C)C)c3nc(-c4c(O)cccc4F)c(F)cc23)C(C)C1 (stereo not given) + Nc1ccc(C#CCN(C(=O)Cc2ncc(C(F)(F)F)cc2C(F)(F)F)c2ccc(F)cc2)nn1"
  STUDY TARGET: "889142-216-R-J1-PDC complex spheroid viability"
  LABEL VALUE: "b1"
- MOLECULE: "C=CC(=O)N1CCN(c2nc(=O)n(-c3c(C)ccnc3C(C)C)c3nc(-c4c(O)cccc4F)c(F)cc23)C(C)C1 (stereo not given) + Cc1cccc(N(C)C(=O)C2C(O)CCN2c2nc(C)cc(C(F)(F)F)c2C#N)c1"
  STUDY TARGET: "889142-216-R-J1-PDC complex spheroid viability"
  LABEL VALUE: "b2"
- MOLECULE: "COc1cccc2c1C(=O)c1c(O)c3c(c(O)c1C2=O)CC(O)(C(=O)CO)CC3OC1CC(N)C(O)C(C)O1 (stereo not given) + COC1C(OC(N)=O)C(O)C(Oc2ccc3c(O)c(NC(=O)c4ccc(O)c(CC=C(C)C)c4)c(=O)oc3c2C)OC1(C)C"
  STUDY TARGET: "889142-216-R-J1-PDC complex spheroid viability"
  LABEL VALUE: "b0"
- MOLECULE: "COc1cc(C2c3cc4c(cc3C(OC3OC5COC(C)OC5C(O)C3O)C3COC(=O)C23)OCO4)cc(OC)c1O (stereo not given) + Cc1cccc(N(C)C(=O)C2C(O)CCN2c2nc(C)cc(C(F)(F)F)c2C#N)c1"
  STUDY TARGET: "889142-216-R-J1-PDC complex spheroid viability"
  LABEL VALUE: "b1"
- MOLECULE: "COc1cccc2c1C(=O)c1c(O)c3c(c(O)c1C2=O)CC(O)(C(=O)CO)CC3OC1CC(N)C(O)C(C)O1 (stereo not given) + Nc1ccc(C#CCN(C(=O)Cc2ncc(C(F)(F)F)cc2C(F)(F)F)c2ccc(F)cc2)nn1"
  STUDY TARGET: "889142-216-R-J1-PDC complex spheroid viability"
  LABEL VALUE: "b0"
- MOLECULE: "CCc1cc2c(N3CCc4c(cc(Cn5ccnc5)cc4-c4cn(C)nc4C(F)(F)F)C3=O)cc(C)nc2c(OC)n1 + Nc1ccc(C#CCN(C(=O)Cc2ncc(C(F)(F)F)cc2C(F)(F)F)c2ccc(F)cc2)nn1"
  STUDY TARGET: "889142-216-R-J1-PDC complex spheroid viability"
  LABEL VALUE: "b2"
- MOLECULE: "CC1COCCN1c1cc(C2(S(C)(=N)=O)CC2)nc(-c2ccnc3[nH]ccc23)n1 (stereo not given) + COC1C(OC(N)=O)C(O)C(Oc2ccc3c(O)c(NC(=O)c4ccc(O)c(CC=C(C)C)c4)c(=O)oc3c2C)OC1(C)C"
  STUDY TARGET: "889142-216-R-J1-PDC complex spheroid viability"
  LABEL VALUE: "b2"
- MOLECULE: "O=C(Nc1ccc(O)c(NS(=O)(=O)c2ccc(F)cc2)c1)c1ccc(-c2ccccc2)cc1 + COC1C(OC(N)=O)C(O)C(Oc2ccc3c(O)c(NC(=O)c4ccc(O)c(CC=C(C)C)c4)c(=O)oc3c2C)OC1(C)C"
  STUDY TARGET: "889142-216-R-J1-PDC complex spheroid viability"
  LABEL VALUE: "b2"
- MOLECULE: "C#Cc1c(F)ccc2cc(O)cc(-c3ncc4c(N5CC6CCC(C5)N6)nc(OCC56CCCN5CC(F)C6)nc4c3F)c12 (stereo not given) + Nc1ccc(C#CCN(C(=O)Cc2ncc(C(F)(F)F)cc2C(F)(F)F)c2ccc(F)cc2)nn1"
  STUDY TARGET: "889142-216-R-J1-PDC complex spheroid viability"
  LABEL VALUE: "b2"
- MOLECULE: "Cn1ncnc1[C@H]1c2n[nH]c(=O)c3cc(F)cc(c23)N[C@@H]1c1ccc(F)cc1 + Cc1cccc(N(C)C(=O)C2C(O)CCN2c2nc(C)cc(C(F)(F)F)c2C#N)c1"
  STUDY TARGET: "889142-216-R-J1-PDC complex spheroid viability"
  LABEL VALUE: "b0"
- MOLECULE: "CCc1cc2c(N3CCc4c(cc(Cn5ccnc5)cc4-c4cn(C)nc4C(F)(F)F)C3=O)ccnc2c(OC)n1 + Nc1ccc(C#CCN(C(=O)Cc2ncc(C(F)(F)F)cc2C(F)(F)F)c2ccc(F)cc2)nn1"
  STUDY TARGET: "889142-216-R-J1-PDC complex spheroid viability"
  LABEL VALUE: "b2"
- MOLECULE: "CC1COCCN1c1cc(-c2ccnn2C)c2ccnc(-c3ccn[nH]3)c2n1 (stereo not given) + Nc1ccc(C#CCN(C(=O)Cc2ncc(C(F)(F)F)cc2C(F)(F)F)c2ccc(F)cc2)nn1"
  STUDY TARGET: "889142-216-R-J1-PDC complex spheroid viability"
  LABEL VALUE: "b0"
- MOLECULE: "COc1cc2cc(C(=O)CCC(=O)O)sc2cc1OC + Cc1cccc(N(C)C(=O)C2C(O)CCN2c2nc(C)cc(C(F)(F)F)c2C#N)c1"
  STUDY TARGET: "889142-216-R-J1-PDC complex spheroid viability"
  LABEL VALUE: "b2"
